- Test protocol: Cmax in ICR mouse at 20 mg/kg, po administered as single dose measured upto 48 hrs by LC-MS analysis
- Assay type: ADME, organism-based
- Set-up: dose 20 mg/kg, time < 48 hrs, route po
- Study conditions: in vivo
Measured attribute: Cmax (ng/mL)
Your answer should be a plain number; it is taken to be in ng/mL.

Asked: Tell me its Cmax given Nc1ncnc2c1c(-c1ccc(Oc3ccccc3)cc1)nn2[C@@H]1CCCN(C(=O)CC(=O)NCC#CCN2CCN(CC#Cc3ccc4c(c3)CN(C3CCC(=O)NC3=O)C4=O)CC2)C1 (some centres not stated) as the entry.
Given back: 20

Asked: Tell me its Cmax given Nc1ncnc2c1c(-c1ccc(Oc3ccccc3)cc1)nn2[C@@H]1CCCN(C(=O)CCC(=O)N2CCN(CC#Cc3ccc4c(c3)CN(C3CCC(=O)NC3=O)C4=O)CC2)C1 (some centres not stated) as the entry.
Given back: 224

====

- System: JeKo-1
- Test protocol: cells
- Study conditions: Homo sapiens
Just a reminder that ties go to FALSE: only IC50 strictly below 800 nM counts as TRUE.

Consider the worked cases shown below.
Nc1ncnc2c1c(-c1ccc(Oc3ccccc3)cc1)nn2[C@@H]1CCCN(C(=O)CCC(=O)N2CCN(CC#Cc3ccc4c(c3)CN(C3CCC(=O)NC3=O)C4=O)CC2)C1 (stereo partly specified)
FALSE
Nc1ncnc2c1c(-c1ccc(Oc3ccccc3)cc1)nn2[C@@H]1CCCN(C(=O)CC(=O)NCC#CCN2CCN(CC#Cc3ccc4c(c3)CN(C3CCC(=O)NC3=O)C4=O)CC2)C1 (stereo partly specified)
FALSE
Nc1ncnc2c1c(-c1ccc(Oc3ccccc3)cc1)nn2[C@@H]1CCCN(C(=O)[C@H]2CC[C@H](C(=O)N3CCN(CC#Cc4ccc5c(c4)CN(C4CCC(=O)NC4=O)C5=O)CC3)CC2)C1 (stereo partly specified)
FALSE
Nc1ncnc2c1c(-c1ccc(Oc3ccccc3)cc1)nn2C1CCN(C2CCN(CC#Cc3ccc4c(c3)CN(C3CCC(=O)NC3=O)C4=O)CC2)CC1 (stereo unspecified)
TRUE

Asked: Is IC50 strictly under 800 nM for the entry Nc1ncnc2c1c(-c1ccc(Oc3ccccc3)cc1)nn2[C@@H]1CCCN(C(=O)/C=C/C(=O)N2CCN(CC#Cc3ccc4c(c3)CN(C3CCC(=O)NC3=O)C4=O)CC2)C1 (stereo partly specified) ?
Given back: TRUE

====

- Test protocol: AUC (0 to t) in Sprague-Dawley rat at 10 mg/kg, po administered as cassette dose measured upto 24 hrs by LC-MS analysis
- Assay type: ADME, organism-based
- Set-up: dose 10 mg/kg, time < 24 hrs, route po
- Study conditions: in vivo
Measured attribute: AUC(0-t) at 24 h (ng·h/mL)
Your answer should be a plain number; it is taken to be in ng·h/mL.

Nc1ncnc2c1c(-c1ccc(Oc3ccccc3)cc1)nn2[C@@H]1CCCN(C(=O)CCC(=O)N2CCN(CC#Cc3ccc4c(c3)CN(C3CCC(=O)NC3=O)C4=O)CC2)C1 (some centres not stated)
288

// switching to the query molecule
Asked: Tell me its AUC(0-t) at 24 h given Nc1ncnc2c1c(-c1ccc(Oc3ccccc3)cc1)nn2[C@@H]1CCCN(C(=O)CC(=O)NCC#CCN2CCN(CC#Cc3ccc4c(c3)CN(C3CCC(=O)NC3=O)C4=O)CC2)C1 (some centres not stated) as the entry.
Given back: 21.5

====

- Test protocol: Cmax in Sprague-Dawley rat at 5 to 10 mg/kg, po administered as cassette dose measured upto 24 hrs by LC-MS analysis
- Type: ADME, organism-based
- Set-up: time < 24 hrs, route po
- Study conditions: in vivo, dose 5-10 mg/kg
Reported Cmax by item:
Your answer should be a plain number; it is taken to be in ng/mL.

Nc1ncnc2c1c(-c1ccc(Oc3ccccc3)cc1)nn2[C@@H]1CCCN(C(=O)/C=C/C(=O)NCC#CCN2CCN(CC#Cc3ccc4c(c3)CN(C3CCC(=O)NC3=O)C4=O)CC2)C1 (some centres not stated)
15
O=C1CCC(N2Cc3ccc(C#CCN4CCN(CC#CCOc5ccc(C(F)(F)F)cc5)CC4)cc3C2=O)C(=O)N1 (configuration not stated)
1250
O=C1CCC(N2Cc3cc(C#CCN4CCN(c5ccc(C(F)(F)F)cc5)CC4)ccc3C2=O)C(=O)N1 (configuration not stated)
1050
O=C1CCC(N2C(=O)c3ccc(N4CCN(C5CN(CC#CCOc6ccc(C(F)(F)F)cc6)C5)CC4)cc3C2=O)C(=O)N1 (configuration not stated)
1050
O=C1CCC(N2Cc3cc(C#CCN4CCN(CC#CCOc5ccc(C(F)(F)F)cc5)CC4)ccc3C2=O)C(=O)N1 (configuration not stated)
1550

Asked: Tell me its Cmax given O=C1CCC(N2Cc3c(OC4CN(CC#CCN5CCN(c6ccc(C(F)(F)F)cc6)CC5)C4)cccc3C2=O)C(=O)N1 (configuration not stated) as the entry.
Given back: 232

Asked: Tell me its Cmax given Nc1ncnc2c1c(-c1ccc(Oc3ccccc3)cc1)nn2[C@@H]1CCCN(C(=O)[C@H]2CCCC[C@H]2C(=O)NCC#CCN2CCN(CC#Cc3ccc4c(c3)CN(C3CCC(=O)NC3=O)C4=O)CC2)C1 (some centres not stated) as the entry.
Given back: 125

====

Reported AUCt/dose by item:
- Test protocol: Dose normalized AUC (0 to t) in Sprague-Dawley rat at 5 to 10 mg/kg, po administered as cassette dose measured upto 24 hrs by LC-MS analysis
- Assay type: ADME, organism-based
- Study conditions: in vivo, dose 5-10 mg/kg
Your answer should be a plain number; it is taken to be in ng·h/mL/mg.

Guide cases for AUCt/dose, answers given:
Nc1ncnc2c1c(-c1ccc(Oc3ccccc3)cc1)nn2[C@@H]1CCCN(C(=O)C2(C(=O)NCC#CCN3CCN(CC#Cc4ccc5c(c4)CN(C4CCC(=O)NC4=O)C5=O)CC3)CC2)C1 (stereo partly specified)
15
Nc1ncnc2c1c(-c1ccc(Oc3ccccc3)cc1)nn2[C@@H]1CCCN(C(=O)[C@H]2CCCC[C@H]2C(=O)N2CCN(CC#Cc3ccc4c(c3)CN(C3CCC(=O)NC3=O)C4=O)CC2)C1 (stereo partly specified)
6
O=C1CCC(N2C(=O)c3cccc(N4CCN(C5CCN(CC#CCOc6ccc(C(F)(F)F)cc6)CC5)CC4)c3C2=O)C(=O)N1 (stereo unspecified)
143
O=C1CCC(N2C(=O)c3ccc(N4CCN(C5CN(CC#CCOc6ccc(C(F)(F)F)cc6)C5)CC4)cc3C2=O)C(=O)N1 (stereo unspecified)
708
O=C1CCC(N2Cc3cc(C#CCN4CCN(c5ccc(C(F)(F)F)cc5)CC4)ccc3C2=O)C(=O)N1 (stereo unspecified)
1527

// switching to the query compound
Asked: Tell me its AUCt/dose given Nc1ncnc2c1c(-c1ccc(Oc3ccccc3)cc1)nn2[C@@H]1CCCN(C(=O)[C@H]2CCCC[C@H]2C(=O)NCC#CCN2CCN(CC#Cc3ccc4c(c3)CN(C3CCC(=O)NC3=O)C4=O)CC2)C1 (stereo partly specified) as the entry.
Given back: 25

====

Reported AUC(0-t) at 48 h by item:
- Test protocol: AUC (0 to t) in ICR mouse at 20 mg/kg, po administered as single dose measured upto 48 hrs by LC-MS analysis
- Assay type: ADME, organism-based
- Design: dose 20 mg/kg, time < 48 hrs, route po
- Study conditions: in vivo
Your answer should be a plain number; it is taken to be in ng·h/mL.

Nc1ncnc2c1c(-c1ccc(Oc3ccccc3)cc1)nn2[C@@H]1CCCN(C(=O)CC(=O)NCC#CCN2CCN(CC#Cc3ccc4c(c3)CN(C3CCC(=O)NC3=O)C4=O)CC2)C1 (some centres not stated)
39

Asked: Tell me its AUC(0-t) at 48 h given Nc1ncnc2c1c(-c1ccc(Oc3ccccc3)cc1)nn2[C@@H]1CCCN(C(=O)CCC(=O)N2CCN(CC#Cc3ccc4c(c3)CN(C3CCC(=O)NC3=O)C4=O)CC2)C1 (some centres not stated) as the entry.
Given back: 374

====

Reported AUCt/dose by item:
- Test protocol: Dose normalized AUC (0 to t) in Sprague-Dawley rat at 5 to 10 mg/kg, po administered as cassette dose measured upto 24 hrs by LC-MS analysis
- Type: ADME, organism-based
- Study conditions: in vivo, dose 5-10 mg/kg
Your answer should be a plain number; it is taken to be in ng·h/mL/mg.

Nc1ncnc2c1c(-c1ccc(Oc3ccccc3)cc1)nn2[C@@H]1CCCN(C(=O)C2(C(=O)N3CCN(CC#Cc4ccc5c(c4)CN(C4CCC(=O)NC4=O)C5=O)CC3)CC2)C1 (some centres not stated)
253
O=C1CCC(N2Cc3cc(CCCN4CCN(CC#CCOc5ccc(C(F)(F)F)cc5)CC4)ccc3C2=O)C(=O)N1 (configuration not stated)
47
O=C1CCC(N2C(=O)c3ccc(N4CCN(C5CN(CCCCOc6ccc(C(F)(F)F)cc6)C5)CC4)cc3C2=O)C(=O)N1 (configuration not stated)
281
O=C1CCC(N2C(=O)c3cccc(N4CCN(C5CCN(CCCCOc6ccc(C(F)(F)F)cc6)CC5)CC4)c3C2=O)C(=O)N1 (configuration not stated)
116
O=C1CCC(N2Cc3cc(C#CCN4CCN(CC#CCOc5ccc(C(F)(F)F)cc5)CC4)ccc3C2=O)C(=O)N1 (configuration not stated)
1524

Asked: Tell me its AUCt/dose given O=C1CCC(N2C(=O)c3cccc(N4CCN(CC5CCN(CC#CCOc6ccc(C(F)(F)F)cc6)CC5)CC4)c3C2=O)C(=O)N1 (configuration not stated) as the entry.
Given back: 435

Asked: Tell me its AUCt/dose given Nc1ncnc2c1c(-c1ccc(Oc3ccccc3)cc1)nn2C1CCN(C2CCN(CC#Cc3ccc4c(c3)CN(C3CCC(=O)NC3=O)C4=O)CC2)CC1 (configuration not stated) as the entry.
Given back: 8
